Study Target: HA of ca B/Beijing/243/97 (victoria) (influenza B virus)
Procedure Details: cell-based or functional assay
Observation Type: Neutralization (IC50) (nM)
Reply with just the number (in nM).

| Binder | Unit Abbreviation | Neutralization (IC50) |
| --- | --- | --- |
| FBD94 IgG (antibody, V domains shown) VH: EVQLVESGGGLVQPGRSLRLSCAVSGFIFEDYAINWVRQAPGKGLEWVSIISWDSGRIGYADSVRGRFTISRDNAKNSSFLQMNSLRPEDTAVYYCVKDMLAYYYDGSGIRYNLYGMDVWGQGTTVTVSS VL: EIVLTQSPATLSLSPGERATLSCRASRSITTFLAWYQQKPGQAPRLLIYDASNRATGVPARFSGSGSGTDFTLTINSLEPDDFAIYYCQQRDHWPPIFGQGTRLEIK | nM | 0.1 |

Pending binder:
Would you kindly share the measured Neutralization (IC50) for FBC39 IgG (antibody, V domains shown) VH: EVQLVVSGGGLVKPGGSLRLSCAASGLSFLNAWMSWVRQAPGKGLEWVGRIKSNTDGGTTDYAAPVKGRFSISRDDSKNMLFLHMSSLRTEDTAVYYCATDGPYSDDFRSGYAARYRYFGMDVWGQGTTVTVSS VL: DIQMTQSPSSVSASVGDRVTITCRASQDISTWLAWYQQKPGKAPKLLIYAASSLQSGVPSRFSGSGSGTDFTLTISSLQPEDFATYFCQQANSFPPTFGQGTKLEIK ?
0.4
